Target: human FAAH (Homo sapiens, UniProt O00519)
Construct: host or cells: COS-7 cells, transient transfection; 13,000 g membrane fraction solubilised in 1% Triton X-100
Sequence (O00519 whole entry): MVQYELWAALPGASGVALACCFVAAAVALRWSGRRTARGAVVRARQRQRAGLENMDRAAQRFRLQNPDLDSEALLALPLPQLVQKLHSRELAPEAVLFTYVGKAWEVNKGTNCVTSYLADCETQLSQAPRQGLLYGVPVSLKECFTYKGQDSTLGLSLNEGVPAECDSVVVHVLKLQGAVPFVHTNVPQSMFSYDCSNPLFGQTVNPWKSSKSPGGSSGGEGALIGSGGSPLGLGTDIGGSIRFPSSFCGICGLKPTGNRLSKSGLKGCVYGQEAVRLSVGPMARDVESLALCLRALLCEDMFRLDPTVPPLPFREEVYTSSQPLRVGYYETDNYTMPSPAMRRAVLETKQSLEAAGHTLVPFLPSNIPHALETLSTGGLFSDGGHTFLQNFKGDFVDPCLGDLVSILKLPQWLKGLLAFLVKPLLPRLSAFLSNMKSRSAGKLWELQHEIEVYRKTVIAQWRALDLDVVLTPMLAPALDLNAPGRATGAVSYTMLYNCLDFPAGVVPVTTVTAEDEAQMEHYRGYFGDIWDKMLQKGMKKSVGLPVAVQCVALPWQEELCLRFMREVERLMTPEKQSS
Experiment: Human FAAH biochemical inhibition assay (AMC arachidonoyl amide fluorescence)
Conditions: Table 2, human FAAH (no asterisk); read-out: Activity (Ki)
pKi: −log10 of the molar value.
Value kind: pKi

# annotated cases, reported pKi shown
compound=O=C(CCc1ccccc1)c1ccc(B(O)O)cc1 value_kind=pKi meas_value="> 8.00"
compound=OB(O)c1ccc(SCc2ccccc2)cc1 value_kind=pKi meas_value="> 8.00"
compound=OB(O)c1ccc(OCCc2ccc(Cl)c(Cl)c2)cc1F value_kind=pKi meas_value="> 8.00"
compound=CNc1cc(B(O)O)cc(C(=O)O)c1 value_kind=pKi meas_value="< 6.00"
compound=Cc1cccc(Oc2ccc(B(O)O)cc2)c1 value_kind=pKi meas_value="> 8.00"

Q) Given the compound Cn1c(-c2ccc(B(O)O)cc2)nc2ccccc21 , what is its reported pKi?
A) < 6.00

Q) Given the compound c1ccc(CCCB(Oc2cccc3cccnc23)c2ccc(Oc3ccccc3)cc2)cc1 , what is its reported pKi?
A) > 8.00

Q) Given the compound OB(O)c1ccc(CNc2cccc3ccccc23)cc1 , what is its reported pKi?
A) < 6.00

Q) Given the compound CN(Cc1ccccc1)[C@H](COc1ccc(B(O)O)c(F)c1)Cc1ccccc1 , what is its reported pKi?
A) 6.00 to 8.00

Q) Given the compound CC1(C)OB(c2ccc(OCc3ccn[nH]3)cc2F)OC1(C)C , what is its reported pKi?
A) 7.00 to 8.00

Q) Given the compound O=S(=O)(Cc1ccccc1)Cc1ccc(B(O)O)c(F)c1 , what is its reported pKi?
A) < 6.00
